Overview of reported pIC50 across a group of compounds:
- target_system: α-glucosidase
- procedure_details: α-glucosidase inhibitory activity (PNPG method)
- assay_conditions: mean ± SE; acarbose as positive control
Please note pIC50 is a logarithmic value: minus log10 of concentration in mol/L. Answer with that number alone.

Query pIC50 on α-glucosidase for COc1cc(CCc2cc(Cl)c(O)c(Cl)c2)ccc1Cl [Compound 5]
4.20

Another compound to look at: Oc1c(Cl)cc(CCc2c(Cl)cc(Cl)c(O)c2Cl)cc1Cl [Compound 1]
4.08

Another compound to look at: COc1cc(O)c(CCC(C)(C)O)c(CCc2ccccc2)c1 [Compound 6]
4.12

Another compound to look at: Oc1cc(CCc2cc(Cl)c(O)c(Cl)c2)c(Cl)cc1Cl [Compound 3]
4.22

Another compound to look at: CC(C)=CCc1ccc(CCc2ccc(O)cc2)cc1O [Compound 8]
4.18

Another compound to look at: CC(C)=CCc1c(O)cc(O)cc1CCc1ccccc1 [Compound 7]
4.25

Another compound to look at: Oc1cc(CCc2cc(Cl)c(O)c(Cl)c2)ccc1Cl [Compound 4, 4,3′,5′-trichloro-3,4′-dihydroxybibenzyl]
4.75
